tested on: COLO 205 colon; experiment: NCI-60 one-dose screen, 48 h; settings: 10 µM unless noted
The panel holds about 83,000 compounds, 20% with a hit somewhere; the sample as a whole holds those more often. Active and inactive are the calls of the source. The calls were made as follows: active = growth percent below 10; inactive = the rest.
// one of active, inactive, no free text

// below: answered molecules
- Cn1ccc(=O)c(S(N)(=O)=O)c1: inactive
- O=C(Nc1cccc(-n2cc(-c3ccncc3)c(-c3ccc(Cl)c(O)c3)n2)c1)c1ccc(N2CCOCC2)c(C(F)(F)F)c1: inactive
- COc1cc(/C=N\NC(=O)CN2CCN(c3cc4c(cc3F)c(=O)c(C(=O)N/N=C/c3cc(OC)c(OC)c(OC)c3)cn4C3CC3)CC2)cc(OC)c1OC: active
- COc1cccc(-c2cc3c(O)cc(C#N)cc3[nH]2)c1: inactive
- CCN(CC)CCCC(C)Nc1c2ccc(Cl)cc2nc2cc(OC)c(OC)cc12 (stereo not given): active

INPUT: Could you check what this test reported for NC(=O)c1c(NC(=S)Nc2ccc(OC(F)(F)F)cc2)sc2c1CCC1(C2)OCCO1 ?
OUTPUT: inactive

INPUT: State the result this test recorded for O=C1/C(=C/c2ccccc2)Oc2ccc(O)c(I)c21 .
OUTPUT: inactive

INPUT: Hi team, can someone confirm the assay call for COc1cc(/C=C/c2cc(/C=C/c3ccc(O)c(OC)c3)n(C(N)=O)n2)ccc1O ?
OUTPUT: active

INPUT: Check the results log: what was the call for CC(=O)Oc1csc(N(C(C)=O)c2cccc(C(F)(F)F)c2)n1 ?
OUTPUT: inactive

INPUT: // outcome(item) with item = CC(C)CSc1nc(NN)c(C#N)c(-c2ccc(F)cc2)n1
OUTPUT: inactive

INPUT: Test call for this molecule, please: N=C(N)c1ccc(-c2cc(Cl)cc(Cl)c2)cn1
OUTPUT: inactive

INPUT: So what was the verdict on CCCCCCCCN(CCCCCCCC)CCCCCCNc1cc(OC)cc2cccnc12 in this test?
OUTPUT: inactive

INPUT: What is the recorded call for this molecule in the test? O=C(Nc1cccc(-n2cc(-c3ccncc3)c(-c3ccc(Cl)c(O)c3)n2)c1)Nc1ccc(Cl)c(Cl)c1
OUTPUT: inactive

INPUT: Lab log entry: CC(C)(C)c1[nH]nc2c1C(c1cc3ccccc3[nH]c1=O)Nc1cc(C(=O)Nc3ccc(Cl)cc3)ccc1N2 (stereo not given) — outcome as called in the assay?
OUTPUT: inactive

INPUT: Just curious, what result did ClC(Cl)c1nc(-c2cccnc2)n2nc(-c3ccccc3)cc2n1 get here?
OUTPUT: active

* * *

Reported values of growth for individual entries
tested on: CCRF-CEM leukemia; assay: NCI-60 one-dose screen, 48 h (100 = growth as untreated, 0 = no growth, -100 = all killed); conditions: 10 µM unless noted
The panel holds about 83,000 compounds, 20% with a hit somewhere; the sample as a whole holds those more often. The source made the active and inactive calls. The calls were made as follows: active = growth percent below 10; inactive = the rest.

Field: example entries. Status: answers known.
- CCCCCCCCC(C)OC(=O)c1nn(C(C)=O)c2ccccc12 (stereo not drawn): 100% (inactive)
- COc1cc(/C=N\NC(=O)CN2CCN(c3cc4c(cc3F)c(=O)c(C(=O)N/N=C/c3cc(OC)c(OC)c(OC)c3)cn4C3CC3)CC2)cc(OC)c1OC: 4.32% (active)
- Cc1nc2ncccc2nc1Nc1ccc(S(=O)(=O)Nc2cncs2)cc1: 100% (inactive)

Then this compound:
INPUT: I would be grateful if you could share the reported growth for COc1cc(C2C3=C(COC3=O)Nc3cc4c(cc32)CCC4)cc2c1OCO2 (stereo not drawn) .
OUTPUT: 10.3% (inactive)
